# Tested on: MDA-MB-231
# procedure_summary: Growth inhibition of human MDA-MB-231/ATCC cells after 48 hrs by sulforhodamine B assay
# Type: functional
# test_conditions: MDA-MB-231, 48 h, read-out: pTGI (converted)
observable: TGI
State the result as a value with its unit after it.

Guide cases for TGI, answers given:
[[record]]
entry_smiles = "COc1cc(/C=C/c2cc(F)c3c(c2)C[C@@H]2C(C)(C)[C@H](O)CC[C@@]2(C)O3)cc(O)c1C/C=C(\\C)CCC=C(C)C"
observable = "TGI"
assay_result = "26.9 µM"

[[record]]
entry_smiles = "COc1cc(/C=C/c2cc3c(c(SC)c2)O[C@]2(C)CC[C@@H](O)C(C)(C)[C@H]2C3)cc(O)c1C/C=C(\\C)CCC=C(C)C"
observable = "TGI"
assay_result = "14.5 µM"


TGI for COCOc1cc(/C=C/c2cc(CO)c3c(c2)C[C@@H]2C(C)(C)[C@H](O)CC[C@@]2(C)O3)cc(OC)c1C/C=C(\C)CCC=C(C)C ?
14.5 µM

====

# Test system: BT-549
# procedure_summary: Growth inhibition of human BT549 cells after 48 hrs by sulforhodamine B assay
# Format: functional
# test_conditions: BT-549, 48 h, read-out: pTGI (converted)
Listed here are molecules together with their documented TGI.
Report the value in µM with no unit label.

Past entries and their recorded results:
[[record]]
entry_smiles = "COc1cc(/C=C/c2cc3c(c(OC)c2)O[C@]2(C)CC[C@@H](O)C(C)(C)[C@H]2C3)cc(O)c1C/C=C(\\C)CCC=C(C)C"
tested_system = "BT-549"
unit_name = "µM"
assay_result = 9.12

[[record]]
entry_smiles = "COCOc1cc(/C=C/c2cc(C=O)c3c(c2)C[C@@H]2C(C)(C)[C@H](O)CC[C@@]2(C)O3)cc(OC)c1C/C=C(\\C)CCC=C(C)C"
tested_system = "BT-549"
unit_name = "µM"
assay_result = 63.1


// next item, TGI requested
Name the recorded TGI for COc1cc(/C=C/c2cc(F)c3c(c2)C[C@@H]2C(C)(C)[C@H](O)CC[C@@]2(C)O3)cc(O)c1C/C=C(\C)CCC=C(C)C .
37.2

====

# Tested on: SK-OV-3
# procedure_summary: Growth inhibition of human SKOV3 cells after 48 hrs by sulforhodamine B assay
# Assay type: functional
# test_conditions: SK-OV-3, 48 h
Reported GI50 values follow for various molecules
Field format: number, assumed µM, no unit text.

[[record]]
entry_smiles = "COc1cc(/C=C/c2cc3c(c(SC)c2)O[C@]2(C)CC[C@@H](O)C(C)(C)[C@H]2C3)cc(O)c1C/C=C(\\C)CCC=C(C)C"
unit_name = "µM"
assay_result = 7.94

[[record]]
entry_smiles = "COc1cc(/C=C/c2ccc3c(c2)C[C@@H]2C(C)(C)[C@H](O)CC[C@@]2(C)O3)cc(O)c1C/C=C(\\C)CCC=C(C)C"
unit_name = "µM"
assay_result = 22.9

[[record]]
entry_smiles = "COc1cc(/C=C/c2cc(F)c3c(c2)C[C@@H]2C(C)(C)[C@H](O)CC[C@@]2(C)O3)cc(O)c1C/C=C(\\C)CCC=C(C)C"
unit_name = "µM"
assay_result = 17

[[record]]
entry_smiles = "COCOc1cc(/C=C/c2cc(C=O)c3c(c2)C[C@@H]2C(C)(C)[C@H](O)CC[C@@]2(C)O3)cc(OC)c1C/C=C(\\C)CCC=C(C)C"
unit_name = "µM"
assay_result = 41.7


I have this molecule here, COc1cc(/C=C/c2cc3c(c(OC)c2)O[C@]2(C)CC[C@@H](O)C(C)(C)[C@H]2C3)cc(O)c1C/C=C(\C)CCC=C(C)C , and I need its recorded GI50.
3.24

What measured GI50 goes with COCOc1cc(/C=C/c2cc(CO)c3c(c2)C[C@@H]2C(C)(C)[C@H](O)CC[C@@]2(C)O3)cc(OC)c1C/C=C(\C)CCC=C(C)C ?
19.5

Given the molecule COc1cc(/C=C/c2cc(O)c3c(c2)C[C@@H]2C(C)(C)[C@H](O)CC[C@@]2(C)O3)cc(O)c1C/C=C(\C)CCC=C(C)C , what is its reported GI50?
1.38

====

# LC50 annotations
# System: KM12
# procedure_summary: Growth inhibition of human KM12 cells after 48 hrs by sulforhodamine B assay
# Type: functional
# test_conditions: KM12, 48 h
Unit µM implied. Number only.

Please look up its LC50: COc1cc(/C=C/c2cc(F)c3c(c2)C[C@@H]2C(C)(C)[C@H](O)CC[C@@]2(C)O3)cc(O)c1C/C=C(\C)CCC=C(C)C
8.32

What measured LC50 goes with COc1cc(/C=C/c2cc(O)c3c(c2)C[C@@H]2C(C)(C)[C@H](O)CC[C@@]2(C)O3)cc(O)c1C/C=C(\C)CCC=C(C)C ?
7.08

LC50 lookup needed for COc1cc(/C=C/c2cc3c(c(SC)c2)O[C@]2(C)CC[C@@H](O)C(C)(C)[C@H]2C3)cc(O)c1C/C=C(\C)CCC=C(C)C , thanks.
83.2

Can you look up the measured LC50 of COc1cc(/C=C/c2ccc3c(c2)C[C@@H]2C(C)(C)[C@H](O)CC[C@@]2(C)O3)cc(O)c1C/C=C(\C)CCC=C(C)C for me?
21.9

Fill blank: measured LC50 of the compound COCOc1cc(/C=C/c2cc(CO)c3c(c2)C[C@@H]2C(C)(C)[C@H](O)CC[C@@]2(C)O3)cc(OC)c1C/C=C(\C)CCC=C(C)C is ____.
57.5

Query (compound): COc1cc(/C=C/c2cc3c(c(OC)c2)O[C@]2(C)CC[C@@H](O)C(C)(C)[C@H]2C3)cc(O)c1C/C=C(\C)CCC=C(C)C ; field requested: LC50
18.6

====

# System: NCI-H522
# procedure_summary: Growth inhibition of human NCI-H522 cells after 48 hrs by sulforhodamine B assay
# Type: functional
# test_conditions: NCI-H522, 48 h
observable: LC50 (µM)
Output spec: scalar in µM, unitless text.

Examples with their reported LC50 follow.
[[record]]
entry_smiles = "COc1cc(/C=C/c2cc(O)c3c(c2)C[C@@H]2C(C)(C)[C@H](O)CC[C@@]2(C)O3)cc(O)c1C/C=C(\\C)CCC=C(C)C"
tested_system = "NCI-H522"
unit_name = "µM"
assay_result = 52.5

[[record]]
entry_smiles = "COc1cc(/C=C/c2cc3c(c(OC)c2)O[C@]2(C)CC[C@@H](O)C(C)(C)[C@H]2C3)cc(O)c1C/C=C(\\C)CCC=C(C)C"
tested_system = "NCI-H522"
unit_name = "µM"
assay_result = 32.4

[[record]]
entry_smiles = "COCOc1cc(/C=C/c2cc(CO)c3c(c2)C[C@@H]2C(C)(C)[C@H](O)CC[C@@]2(C)O3)cc(OC)c1C/C=C(\\C)CCC=C(C)C"
tested_system = "NCI-H522"
unit_name = "µM"
assay_result = 77.6

[[record]]
entry_smiles = "COc1cc(/C=C/c2cc3c(c(SC)c2)O[C@]2(C)CC[C@@H](O)C(C)(C)[C@H]2C3)cc(O)c1C/C=C(\\C)CCC=C(C)C"
tested_system = "NCI-H522"
unit_name = "µM"
assay_result = 93.3

[[record]]
entry_smiles = "COc1cc(/C=C/c2cc(F)c3c(c2)C[C@@H]2C(C)(C)[C@H](O)CC[C@@]2(C)O3)cc(O)c1C/C=C(\\C)CCC=C(C)C"
tested_system = "NCI-H522"
unit_name = "µM"
assay_result = 30.9


Let's switch to this compound now.
So what's the measured LC50 for this one? COc1cc(/C=C/c2ccc3c(c2)C[C@@H]2C(C)(C)[C@H](O)CC[C@@]2(C)O3)cc(O)c1C/C=C(\C)CCC=C(C)C
66.1

====

The entries below are paired with their reported CC50.
# procedure_summary: Growth inhibition of human Hs 578T cells after 48 hrs by sulforhodamine B assay
# Format: functional
# test_conditions: read-out: pLC50 (the source's name) (converted)

Some compounds with known CC50 results, for comparison:
[[record]]
entry_smiles = "COc1cc(/C=C/c2ccc3c(c2)C[C@@H]2C(C)(C)[C@H](O)CC[C@@]2(C)O3)cc(O)c1C/C=C(\\C)CCC=C(C)C"
assay_result = "> 100 µM"

[[record]]
entry_smiles = "COc1cc(/C=C/c2cc3c(c(SC)c2)O[C@]2(C)CC[C@@H](O)C(C)(C)[C@H]2C3)cc(O)c1C/C=C(\\C)CCC=C(C)C"
assay_result = "> 100 µM"

[[record]]
entry_smiles = "COc1cc(/C=C/c2cc(F)c3c(c2)C[C@@H]2C(C)(C)[C@H](O)CC[C@@]2(C)O3)cc(O)c1C/C=C(\\C)CCC=C(C)C"
assay_result = "> 100 µM"

[[record]]
entry_smiles = "COCOc1cc(/C=C/c2cc(CO)c3c(c2)C[C@@H]2C(C)(C)[C@H](O)CC[C@@]2(C)O3)cc(OC)c1C/C=C(\\C)CCC=C(C)C"
assay_result = "> 100 µM"

[[record]]
entry_smiles = "COCOc1cc(/C=C/c2cc(C=O)c3c(c2)C[C@@H]2C(C)(C)[C@H](O)CC[C@@]2(C)O3)cc(OC)c1C/C=C(\\C)CCC=C(C)C"
assay_result = "> 100 µM"


Now turn to the next compound.
Request the reported CC50 associated with COc1cc(/C=C/c2cc(O)c3c(c2)C[C@@H]2C(C)(C)[C@H](O)CC[C@@]2(C)O3)cc(O)c1C/C=C(\C)CCC=C(C)C
26.9 µM
